Every entry's value here was drawn from paper PMC2375318.

experiment: Pilot pharmacokinetics after intravenous and intraperitoneal injection; type: in vivo, hamster; conditions: Syrian Golden, hamster, plasma, ip; after intraperitoneal injection; hamsters; pilot study; read-out: Plasma half-life time
Readout Name: half-life (min)

Smiles Structure: CC(C)[C@H]1C(=O)N[C@@H](CCCNC(=N)N)C(=O)NCC(=O)N[C@@H](CC(=O)O)C(=O)N[C@H](Cc2ccccc2)C(=O)N1C
Readout Name: half-life
Recorded Measurement: 47
